biological target: human FPR1 (Homo sapiens (Human)); test: FPR1 cyclic adenosine monophosphate (cAMP) assay; settings: CHO cells overexpressing human FPR1; forskolin 10 µM; inhibition of cAMP production; read-out: hFPR1 cAMP EC50
Sequence (P21462 whole entry): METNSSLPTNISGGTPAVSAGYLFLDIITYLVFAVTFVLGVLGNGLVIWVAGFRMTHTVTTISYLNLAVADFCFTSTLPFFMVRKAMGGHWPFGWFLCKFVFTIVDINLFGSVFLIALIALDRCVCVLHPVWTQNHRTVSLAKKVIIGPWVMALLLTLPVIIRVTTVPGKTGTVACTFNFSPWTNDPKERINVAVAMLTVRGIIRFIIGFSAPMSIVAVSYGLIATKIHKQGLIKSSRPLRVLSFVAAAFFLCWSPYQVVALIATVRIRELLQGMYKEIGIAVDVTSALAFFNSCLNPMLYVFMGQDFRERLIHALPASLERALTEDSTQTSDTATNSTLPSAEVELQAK
assayEndpoint: EC50 (nM)
Unit nM implied. Number only.

Examples from the recorded data:
COc1cc(F)c([C@@H]2CN(c3cc(OC)ccc3F)C(=O)[C@H]2NC(=O)c2ccc(OC(F)(F)F)cc2)c(F)c1; 280
COc1cc(F)c([C@@H]2CN(c3c(F)cccc3C#N)C(=O)[C@H]2NC(=O)c2ccc(Cl)cc2)c(F)c1; 4100
COc1cc(F)c([C@@H]2CN(c3cc(F)cc(OC(C)C)c3)C(=O)[C@H]2NC(=O)c2ccc(OC(F)F)cc2)c(F)c1; 110
COc1cc(F)c([C@H]2[C@H](NC(=O)c3ccc(OC(F)F)cc3)C(=O)N(c3cccn(CCO)c3=O)[C@@H]2C)c(F)c1; 640
COCCn1cccc(N2C[C@@H](c3c(F)cc(OC)cc3F)[C@H](NC(=O)c3ccc(OC(F)F)cc3)C2=O)c1=O [Example 113]; 16

Moving on to another molecule below.
IN: Checklist item: EC50 tested on human FPR1 (Homo sapiens (Human)), entry COc1cc(F)c([C@@H]2CN(c3nc(N4C(=O)C5CCCC54)ccc3F)C(=O)[C@H]2NC(=O)c2ccc(OC(F)F)cc2)c(F)c1 (stereo partly drawn) [Example 119] , value?
OUT: 67
